# assay_protocol: 384-well plate pilot, post-Golgi transport modulator project, inhibition of yeast transport mutant growth (AID 636)
# conditions_used: absorbance 615 nm, about 18 h, stronger effect = higher value
Activity calls are given as the source filed them. Cut-off read from the data, not from the text of the source: active = inhibition above about 31%; inactive = the rest.
property_measured: inhibition

{"columns": ["compound", "property_measured", "result"],
 "data": [
  ["N#CCc1nc(CSc2nc3ccccc3s2)cs1", "inhibition", "-1.04% (inactive)"],
  ["CSC(=O)CC(=O)NC(=O)c1ccccc1", "inhibition", "-1.05% (inactive)"],
  ["COc1ccc(OC)c(-n2nnnc2SCC(=O)NCc2ccc3c(c2)OCO3)c1", "inhibition", "-5.87% (inactive)"]
]}

// batch mode: one inhibition value per listed entry
1. O=C(OC1CCc2ccccc2C1=O)c1ccccc1O (stereo unspecified)
2. CCCCOc1ccc(S(=O)(=O)n2c(C)nc3ccccc32)cc1
3. CCCNC(=O)c1cc(-c2ccco2)on1

[out]
1: -1.33% (inactive); 2: -3.38% (inactive); 3: -1.87% (inactive)
